Test system: K4 kissing-loop RNA reporter;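 also: bound reporter read as fluorescence of individual clusters on recovered sequencing chips by microscopy, with normalized cluster intensities fitted with a binding model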
methodDescription: apparent KD of K4 kissing-loop reporter; higher = weaker reporter binding
assaySetup: Eterna round: R107; input ligand: arginine 13.2 mM

macromoleculeSequence: AACGCUGCCUGAGGAUAUAGAAACGAGUGAUGUUCGUGGAACGAGACCAGUGAUGUUGGCCUAUUUCUAGAAGGCAGGCAACCGC [Exclusion FMN B GF 1]
apparent KD of K4 kissing-loop reporter: 121 nM
//
macromoleculeSequence: UUGACCAAAUUCCGGUGAUCAUCGCCGCCGCGAGGACCGGUACGGCCGCCACUCGUCCCUAUGCUCGGAGUAGUGAUGUUAUUCA [theeternabot_sameState_KL_Trp_A_43]
apparent KD of K4 kissing-loop reporter: 197 nM
//
macromoleculeSequence: UCCCGAGUGAUGUUUGGCUGAUGGAGUGAUACCAGUCCCUAGACUGACCCUUGGCAGCACGACUUGUACCAGGCGGAUCACCCUG [theeternabot_exclusion_KL_Theo_A_5]
apparent KD of K4 kissing-loop reporter: 260 nM
//
macromoleculeSequence: AGGUUUUGAUCAGGAUAUGCAUUGACGAUGAGAAUAUAGUGAUGUUAUAUACUACGAAUUAGUAAAGUAGAAGGGAUUGAGGUUU [SSFMNB.aB]
apparent KD of K4 kissing-loop reporter: 565 nM
//
macromoleculeSequence: GUAGGAUGAGGAGGAGGAUGAAUUACUGAAGGAGCGCAGAGAAAUGCAGGUAGGUCGCGGUAAAGAAGUAUAGUGAUGUUAUAUC [#09 K4 Arginine A Same State]
apparent KD of K4 kissing-loop reporter: 308 nM
//
macromoleculeSequence: GGCACUUUUGGUAGACACCAUCUACCUCUAUAGGAUAUGCCGAAAGGCAGAAGGAUAGACCUACAGAGUGAUGUUCUGCGUGCCU
apparent KD of K4 kissing-loop reporter: 801 nM
//
macromoleculeSequence: GAUCCAUGACAAGGAUAUUCGCCAACGGUGCCGGAGUGAUGUUCUGCACAACAGACUACAAGUAAGGAAGAAGGUGUCAGUUACC [theeternabot_sameState_KL_FMN_B_29]
apparent KD of K4 kissing-loop reporter: 843 nM
//
macromoleculeSequence: CCUUUCAGUUACGAUACCAGUCUAAUAUAUUUGAUCAAUACCCUCGCCGAGUGAUGUUCGGACCCUUGGCAGCGUCUGGGACAGG [gbbymullin]
apparent KD of K4 kissing-loop reporter: 428 nM
//
macromoleculeSequence: AUAAUAUUGCGAGGAUAUCCUUCCCACGUCGAAGUACCGUGCUUGAUGGAGUGAUGUUCGAUCAGAGGAGAAGGCGCGGUGUUGU [Same State FMN B GF23]
apparent KD of K4 kissing-loop reporter: 543 nM
//
macromoleculeSequence: UGUGUUUUUUUGAUGUUUGUUGUAAAAUGGCAGGAUAUCGUAGAGGCGAGAAGGGCUUUUAUGCGUUAUGAGUGAUGUUUGUAGG [qqdqmullin]
apparent KD of K4 kissing-loop reporter: 297 nM
//
macromoleculeSequence: AAAUUGUUUAGAGGAUAUUCUUUAUUCGACAUAACCUUCUAUAAGGUGCAGUGAUGUUGCAAUAUAGGAGAAGGCUGAGCGAUAA [Exclusion FMN B Gf 14]
apparent KD of K4 kissing-loop reporter: 177 nM
//
macromoleculeSequence: AAAAUAAUCCAGUGAUGUUGGUAUCCAGAUACCAGCCACGAAAGUGGCCCUUGGCAGCUGUGGACGUACAAAAUAAGUACGUCCU [#OpenEnded 8 #StaticStem #K4Early]
apparent KD of K4 kissing-loop reporter: 293 nM
//
macromoleculeSequence: AGUGAUGUUUUUUUUAAGAGUGAUGUUUUUCGAGGACCGGUACGGCCGCCACUCGAGUGAUGAGUGCGUUGUUGUGAUGUUUAGU [#11 K4 Tryptophan A Exclusion]
apparent KD of K4 kissing-loop reporter: 362 nM
//
macromoleculeSequence: UGACUACAGGAAUAAUAAUCCUAGUGAUGUUAGGAUAUGCUGAUAAGCAGAAGGAACUGAGAUCGAAAGAUCUCAAAAGUAGUCU [FmnAX 28 Mat Inspired #SwitchBubble #StaticStem #K4Early]
apparent KD of K4 kissing-loop reporter: 89.3 nM
//
macromoleculeSequence: UCCUAUACCCUUCCCGGACGCCGUGGAGAUACCAGCCACGUAGCGGGCCCUUGGCAGCUCGAGUGAUGUUCGAGAUCGUCAGGAU [Veteve]
apparent KD of K4 kissing-loop reporter: 124 nM
//
macromoleculeSequence: AAUAAAAUCACGGCCGCCACUGAAUUAUUGGUAAGUAGUGAUGUUACUUUACAUAUCUAAUUUAACAGGACCGGGUGAAUAUUUA [#17 K4 Tryptophan B Exclusion]
apparent KD of K4 kissing-loop reporter: 93.4 nM
//
macromoleculeSequence: CGCAGUGAUGUUGCGAGCAGCUACAGGGAAGGAGCGCUUUAGUAAGCAGGUAGGUCGCCCACGCAGUGAUGUUGCGUCAUAGGGU [Exclusion Arginine A GF 20]
apparent KD of K4 kissing-loop reporter: 123 nM
//
macromoleculeSequence: CUUAGGAGUGGUGUUGAUUAGGGAGCGGAAGGAGCGCCAAUGAUGGCAGGUAGGUCGCCGGAAUGUAGUGAUGUUGCAUAGAGGG [ExArgA.S]
apparent KD of K4 kissing-loop reporter: 225 nM
//
macromoleculeSequence: AGGAUCACGUCAGUGAUGUUGACAAGAGAUACCAGAGACGAAAGUCUCCCUUGGCAGCUCACUGUGAUCCGUGACAAAGGUCACA [Omei KL hio A SS C v1]
apparent KD of K4 kissing-loop reporter: 63.2 nM
//
macromoleculeSequence: AGGUCCGAGCCCGGAAGGGCUCGGACCUGUUAGGAUAUGACGUUAUUCAGAAGGGAUGGGUGGAGUGAUGUUCCACCCGCAAGGG [#2 Same State - FMN A Attempt #9 (HarryS)]
apparent KD of K4 kissing-loop reporter: 96.3 nM
//
macromoleculeSequence: AUGUCUGAUAGCAGUGAUGUUGCUUCAGAUACCAGACGAGAUCAUGUCCCUUGGCAGCUGACACGGCACGUGCUAGGUUAGAUGA [whbob_Ex_Theo_A_th71]
apparent KD of K4 kissing-loop reporter: 94.4 nM
//
macromoleculeSequence: AACGCUCAAUAGAGAGUGAUGUUCUCUAUACGAGGACCGGUACGGCCGCCACUCGAAUGUAUAGCGAAACGCUAUACACAGUGGU [Tryp A SS t2]
apparent KD of K4 kissing-loop reporter: 147 nM
//
macromoleculeSequence: CAUACGCAUGGAGGAUAUGAGAUUACUCAUAUUACCCUGUAACAGGUAUCUCAGUGAUGUUGAGACUCAGAAGGCCAUGUGUAUG [Ex FMN B 22]
apparent KD of K4 kissing-loop reporter: 354 nM
